Values compiled from paper PMC11988912.

assay.system: Gly m 4 (Glycine max)
Construct: gene PR-10; recombinant allergen, full length; made in E. coli
Sequence (P26987 1-158): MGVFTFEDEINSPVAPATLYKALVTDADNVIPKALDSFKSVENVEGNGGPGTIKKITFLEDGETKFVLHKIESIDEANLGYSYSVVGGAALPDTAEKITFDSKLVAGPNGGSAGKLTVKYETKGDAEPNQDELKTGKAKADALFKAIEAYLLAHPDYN
method.notes: TNS fluorescence displacement
Assay type: binding
applied.conditions: 4 uM ligand, 4 uM TNS, 4 uM Gly m 4; 10 mM phosphate buffer pH 7.4, 25 C; residual fluorescence of the Gly m 4-TNS complex
Note to self: % of the control fluorescence under 70% means met, ties and anything higher get not met.

Reference set (3 entries):
C[C@H](CCC(=O)O)[C@H]1CC[C@H]2[C@@H]3CC[C@@H]4C[C@H](O)CC[C@]4(C)[C@H]3CC[C@]12C [LCA, lithocholic acid]
met
C[C@H](CCC(=O)O)[C@H]1CC[C@H]2[C@@H]3[C@H](O)C[C@@H]4C[C@H](O)CC[C@]4(C)[C@H]3CC[C@]12C [CDCA, chenodeoxycholic acid]
met
CC(C)CCC[C@@H](C)[C@H]1CC[C@H]2[C@@H]3CC=C4C[C@@H](O)CC[C@]4(C)[C@H]3CC[C@]12C [CHOL, cholesterol]
not met

Attention now turns to another entry.
Request: Hi there! Is % of the control fluorescence for C[C@H](CCC(=O)O)[C@H]1CC[C@H]2[C@@H]3[C@H](O)C[C@@H]4C[C@H](O)CC[C@]4(C)[C@H]3C[C@H](O)[C@]12C [CA, cholic acid] below 70%, do you know?
Result: not met
